protocolText: reduced absorbance of E. coli cultures with phage – HTS, RecBCD inhibitor project, primary screen (AID 651602)
conditionDetails: growth absorbance, at 11.9 µM
About 950 (0.26%) of roughly 360,000 compounds were called active. Cut-off read from the data, not from the text of the source: active = inhibition above about 11%; inactive = the rest. The full list was thinned out, with actives kept by preference.
Possible outcomes: active, inactive

> print(dat)
                                    compound  grouplabel
 1    Cc1cccc(NC(=O)c2ccc([N+](=O)[O-])o2)c1      active
 2           ON=C1/C(=N\O)CC2(C/C1=N/O)OCCO2      active
 3  COC(=O)N/N=C/c1c[n+]([O-])c2ccccc2[n+]1[O-]      active
 4  CCN1CCN(c2nc(Nc3cc(OC)ccc3OC)nc(Nc3cc(OC)ccc3OC)n2)CC1      active
 5      CCCCNc1cccc2c1S(=O)(=O)N[C@@H](C)CO2    inactive
 6  Cn1ccc(=Nc2ccc(NC(=O)c3ccc(N=c4ccn(C)c5ccc([N+](=O)[O-])cc45)cc3)cc2)cc1      active
 7  CN1C(=O)C2CC(O)C(SC3CC4C(=O)N(C)C(=O)C4CC3O)CC2C1=O (stereo unspecified)    inactive
 8  CN1C(=O)C(Br)(Br)CC1c1cccnc1 (stereo unspecified)    inactive
 9  CCN(CC)S(=O)(=O)c1ccc(N2CCCC2)c(NC(=O)c2ccc([N+](=O)[O-])o2)c1    inactive
10  CCCOc1ccc(Cl)cc1Nc1nc(NCCO)nc(N2CCCC2)n1    inactive
11  CCOC(=O)c1ccc(NC(=O)CS(=O)(=O)c2cn(CC)c3ccccc23)cc1    inactive
12   Cc1cc(NCCc2c[nH]c3ccccc23)ccc1Oc1cccnc1    inactive
13  COCCNC(=S)N(C)[C@H]1C[C@H]2c3[nH]c4ccccc4c3CCN2C[C@H]1[C@H](C)O    inactive
14  CC(C)CNc1cccc2c1S(=O)(=O)N[C@H](CC(C)C)CO2    inactive
15  O=C(Nc1ccc(Br)cn1)c1ccc([N+](=O)[O-])cc1Cl    inactive
16  O=S1(=O)c2c(cccc2N2CCCCC2)O[C@H](COCc2ccccc2)CN1C1CC1    inactive
17  COC(=O)c1cc2c(c3c4ccccc4n(S(=O)(=O)c4cccc(C)c4)c13)C(=O)N(Cc1ccccc1)C2    inactive
18  COc1ccc(N(CC(=O)NC2CCCCC2)S(=O)(=O)c2c(C)[nH]c(=O)[nH]c2=O)cc1    inactive
19  COCc1[nH]nc2c1C(c1ccccc1)N(c1ccccc1)C2=O (stereo unspecified)    inactive
20  C#CCN([C@@H](C)C(=O)OCC)S(=O)(=O)c1ccc(Br)cc1F    inactive
21  Cc1cn(C2OC[C@@H](O)[C@@H]2CO)c(=O)[nH]c1=O (stereo partly specified)    inactive
22  COC(=O)[C@]12C[C@H](CC(=O)NCc3cccc(C(F)(F)F)c3)C(=O)N(Cc3ccc4c(c3)OCO4)C1=C[C@H](COCc1ccccc1)O[C@@H]2C    inactive
23  C=CCN=C1NC(c2cccc(C(F)(F)F)c2)C(C(=O)OC)=C(C)N1C (stereo unspecified)    inactive
24  Cc1ccc(/C=N/NC(=O)C(NC(=O)c2ccccc2)c2n[nH]c(=O)c3ccccc23)cc1 (stereo unspecified)    inactive
25  CC(C)c1ccc(NC(=O)CCN2C(=O)c3ccc([N+](=O)[O-])cc3C2=O)cc1    inactive
26  CC(=O)NC(c1cccs1)c1cc(Br)c2cccnc2c1O (stereo unspecified)      active
27  CCCN1C(=O)c2[nH]nc(-c3ccccc3)c2C1c1ccccc1 (stereo unspecified)    inactive
28  CCOc1ccc(N(CC(=O)Nc2ccccc2F)S(=O)(=O)c2c(C)[nH]c(=O)[nH]c2=O)cc1    inactive
29     COc1ccc(CNS(=O)(=O)c2cc(Br)ccc2Br)cc1    inactive
30       O=C(/C=C/c1ccc(Cl)cc1)Nc1ccc(Br)cn1    inactive
31  COC(=O)[C@]12C[C@H](CC(=O)NCc3ccccc3)C(=O)N(CCC3=CCCCC3)C1=C[C@H](C(C)(C)C)O[C@@H]2C    inactive
32                    CCOC(=O)/C=C/c1ccccc1O    inactive
33  COC(=O)C(C(=O)OC)c1ccccc1NS(=O)(=O)c1cccc2ccccc12    inactive
34  CCCCCCCCN1C(=O)[C@@H](CC(=O)NCCCC)C[C@@]2(C(=O)OC)C1=C[C@H](C(C)(C)C)O[C@@H]2C    inactive
35   O=C(Nc1ccc(Br)cn1)c1ccc([N+](=O)[O-])o1      active
36  N#Cc1ccccc1NC(=O)COc1c(Br)cc(Br)c2cccnc12    inactive
37  CC(C)(C)C(c1nc2ccccc2[nH]1)n1c(Cc2csc3ccccc23)nc2ccccc21 (stereo unspecified)    inactive
38       COc1ccc(OC)c(NC(=O)CCN2CCC(C)CC2)c1    inactive
39  CCOc1ccc(Cn2nnc(C(=O)Nc3ccc(OC)cc3OC)c2N)cc1      active
40  COC(=O)Cc1nnn2c1[C@H](C)[C@H](c1ccccc1Br)OCC2    inactive
41  O=C(COc1ccc(F)cc1Br)NCC1COc2ccccc2O1 (stereo unspecified)    inactive
